- Tested on: RXF 393
- ASSAY_PROTOCOL: cells
- Assay type: cell-based
- ASSAY_CONTEXT: RXF 393 (Renal Cancer), 10 μM, 48 hours
MEASURED_ATTRIBUTE: growth percentage (%)
Field format: number, assumed %, no unit text.

Solved entries:
* CC1CCN(c2nc3ccccc3c3c2-c2ccc(Cl)cc2C3=O)CC1 [SJ-6] | 97.51
* CN(C)c1nc2ccccc2c2c1-c1ccc(Cl)cc1C2=O [SJ-2] | 101.32
* CNc1nc2ccccc2c2c1-c1ccc(Cl)cc1C2=O [SJ-1] | 97.15
* O=C1c2cc(Cl)ccc2-c2c(N3CCOCC3)nc3ccccc3c21 [SJ-8] | 114.61
* COc1nc2ccccc2c2c1-c1ccc(Cl)cc1C2=O [SJ-27] | 114.49

Entry under review: O=C1c2cc(Cl)ccc2-c2c(N3CCSCC3)nc3ccccc3c21 [SJ-9] . Reported growth percentage?
106.09

Follow-up entry: O=C1c2cc(Cl)ccc2-c2c(N3CCN(c4ccccc4)CC3)nc3ccccc3c21 [SJ-16]
72.95

Follow-up entry: COc1cccc(N2CCN(c3nc4ccccc4c4c3-c3ccc(Cl)cc3C4=O)CC2)c1 [SJ-20]
78.38

Follow-up entry: CN1CCN(c2nc3ccccc3c3c2-c2ccc(Cl)cc2C3=O)CC1 [SJ-12]
94.00

Follow-up entry: O=C1c2cc(Cl)ccc2-c2c(N3CCN(C4CCCC4)CC3)nc3ccccc3c21 [SJ-14]
95.60

Follow-up entry: O=C1c2cc(Cl)ccc2-c2c(N3CCN(C(=O)N4CCCCC4)CC3)nc3ccccc3c21 [SJ-23]
107.22

###

Each entry below lists one item and its recorded growth percentage value.
- Tested on: BT-549
- ASSAY_PROTOCOL: cells
- Type: cell-based
- ASSAY_CONTEXT: BT-549 (Breast Cancer), 10 μM, 48 hours
Field format: number, assumed %, no unit text.

* O=C1c2cc(Cl)ccc2-c2c(SCCO)nc3ccccc3c21 | 92.88
* COc1nc2ccccc2c2c1-c1ccc(Cl)cc1C2=O | 92.95
* CN(C)c1nc2ccccc2c2c1-c1ccc(Cl)cc1C2=O | 102.55
* CNc1nc2ccccc2c2c1-c1ccc(Cl)cc1C2=O | 101.88

Return growth percentage measured with BT-549 given this compound: O=C1c2cc(Cl)ccc2-c2c(N3CCNCC3)nc3ccccc3c21
58.35

Follow-up entry: O=C1c2cc(Cl)ccc2-c2c(N3CCN(C(=O)N4CCCCC4)CC3)nc3ccccc3c21
105.34

Follow-up entry: O=C1c2cc(Cl)ccc2-c2c(O)nc3ccccc3c21
120.08

###

- System: PC-3
- ASSAY_PROTOCOL: cells
- Type: cell-based
- ASSAY_CONTEXT: PC-3 (Prostate Cancer), 10 μM, 48 hours
Each entry belongs to exactly one class, chosen by where its growth percentage falls: category 1: < 80%; category 2: ≥ 80% and < 90%; category 3: ≥ 90%

- CN1CCN(c2nc3ccccc3c3c2-c2ccc(Cl)cc2C3=O)CC1 [SJ-12]: category 2

Hi, small favor: classify COc1nc2ccccc2c2c1-c1ccc(Cl)cc1C2=O [SJ-27] by its growth percentage when you get a moment.
category 1

Follow-up entry: O=C1c2cc(Cl)ccc2-c2c(Cl)nc3ccccc3c21 [TC-XCl-1]
category 3

Follow-up entry: O=C1c2cc(Cl)ccc2-c2c(SCCO)nc3ccccc3c21 [SJ-25]
category 1

Follow-up entry: O=C1c2cc(Cl)ccc2-c2c(O)nc3ccccc3c21 [SJ-26]
category 3

Follow-up entry: O=C1c2cc(Cl)ccc2-c2c(N3CCN(C(=O)N4CCCCC4)CC3)nc3ccccc3c21 [SJ-23]
category 3

Follow-up entry: O=C1c2cc(Cl)ccc2-c2c(N3CCN(C4CCCC4)CC3)nc3ccccc3c21 [SJ-14]
category 2

Follow-up entry: COc1cccc(N2CCN(c3nc4ccccc4c4c3-c3ccc(Cl)cc3C4=O)CC2)c1 [SJ-20]
category 1

###

Each entry below lists one item and its recorded growth percentage value.
- Test system: UO-31
- ASSAY_PROTOCOL: cells
- Format: cell-based
- ASSAY_CONTEXT: UO-31 (Renal Cancer), 10 μM, 48 hours
Field format: number, assumed %, no unit text.

Solved entries:
• O=C1c2cc(Cl)ccc2-c2c(N3CCN(c4ccccc4)CC3)nc3ccccc3c21 = 65.02
• O=C1c2cc(Cl)ccc2-c2c(N3CCN(C(=O)N4CCCCC4)CC3)nc3ccccc3c21 = 82.74
• CCN(CC)CCNc1nc2ccccc2c2c1-c1ccc(Cl)cc1C2=O = 25.86
• CN(C)c1nc2ccccc2c2c1-c1ccc(Cl)cc1C2=O = 48.63
• O=C1c2cc(Cl)ccc2-c2c(O)nc3ccccc3c21 = 70.50

Entry under review: O=C1c2cc(Cl)ccc2-c2c(N3CCNCC3)nc3ccccc3c21 . Reported growth percentage?
-40.61

Follow-up entry: O=C1c2cc(Cl)ccc2-c2c(N3CCOCC3)nc3ccccc3c21
45.74

Follow-up entry: COc1nc2ccccc2c2c1-c1ccc(Cl)cc1C2=O
55.69

Follow-up entry: O=C1c2cc(Cl)ccc2-c2c(Cl)nc3ccccc3c21
80.62

Follow-up entry: CC1CCN(c2nc3ccccc3c3c2-c2ccc(Cl)cc2C3=O)CC1
76.25

Follow-up entry: CN1CCN(c2nc3ccccc3c3c2-c2ccc(Cl)cc2C3=O)CC1
47.60

###

Each entry below lists one item and its recorded growth percentage value.
- System: SK-MEL-5
- ASSAY_PROTOCOL: cells
- Format: cell-based
- ASSAY_CONTEXT: SK-MEL-5 (Melanoma), 10 μM, 48 hours
Field format: number, assumed %, no unit text.

Entry under review: CNc1nc2ccccc2c2c1-c1ccc(Cl)cc1C2=O . Reported growth percentage?
80.96

###

- Tested on: MDA-MB-468
- ASSAY_PROTOCOL: cells
- Format: cell-based
- ASSAY_CONTEXT: MDA-MB-468 (Breast Cancer), 10 μM, 48 hours
growth percentage strictly under 60% means MET; at 60% or over means NOT MET.

Please review the following examples before continuing.
- COc1cccc(N2CCN(c3nc4ccccc4c4c3-c3ccc(Cl)cc3C4=O)CC2)c1: NOT MET
- O=C1c2cc(Cl)ccc2-c2c(Cl)nc3ccccc3c21: NOT MET
- O=C1c2cc(Cl)ccc2-c2c(N3CCNCC3)nc3ccccc3c21: MET

From here, focus on the item given below.
Please determine if O=C1c2cc(Cl)ccc2-c2c(N3CCN(C(=O)N4CCCCC4)CC3)nc3ccccc3c21 is below 60% in terms of growth percentage.
NOT MET

###

- System: human PC-3 cells
- ASSAY_PROTOCOL: Sulforhodamine B (SRB) assay, cytotoxicity against PC-3 cells
- Format: cell-based
- ASSAY_CONTEXT: Homo sapiens, PC-3, 48 h
MEASURED_ATTRIBUTE: pIC50
Please express pIC50 as -log10 of the molar concentration.

Entry under review: CN(C)c1nc2ccccc2c2c1-c1ccc(Cl)cc1C2=O . Reported pIC50?
5.36

###

Each entry below lists one item and its recorded growth percentage value.
- System: BT-549
- ASSAY_PROTOCOL: cells
- Format: cell-based
- ASSAY_CONTEXT: BT-549 (Breast Cancer), 10 μM, 48 hours
Field format: number, assumed %, no unit text.

Solved entries:
• CC1CCN(c2nc3ccccc3c3c2-c2ccc(Cl)cc2C3=O)CC1 = 95.52
• O=C1c2cc(Cl)ccc2-c2c(Cl)nc3ccccc3c21 = 119.62
• CN1CCN(c2nc3ccccc3c3c2-c2ccc(Cl)cc2C3=O)CC1 = 82.89
• O=C1c2cc(Cl)ccc2-c2c(N3CCSCC3)nc3ccccc3c21 = 92.91
• O=C1c2cc(Cl)ccc2-c2c(N3CCN(c4ccccc4)CC3)nc3ccccc3c21 = 89.83
• O=C1c2cc(Cl)ccc2-c2c(N3CCN(C4CCCC4)CC3)nc3ccccc3c21 = 102.74
• COc1cccc(N2CCN(c3nc4ccccc4c4c3-c3ccc(Cl)cc3C4=O)CC2)c1 = 101.57
• O=C1c2cc(Cl)ccc2-c2c(N3CCOCC3)nc3ccccc3c21 = 93.95

# input for lookup
Entry under review: CCN(CC)CCNc1nc2ccccc2c2c1-c1ccc(Cl)cc1C2=O . Reported growth percentage?
87.48

###

- Test system: SW-620
- ASSAY_PROTOCOL: cells
- Assay type: cell-based
- ASSAY_CONTEXT: SW-620 (Colon Cancer), 10 μM, 48 hours
MEASURED_ATTRIBUTE: growth percentage

- O=C1c2cc(Cl)ccc2-c2c(N3CCOCC3)nc3ccccc3c21 [SJ-8]: 103.71%
- CN1CCN(c2nc3ccccc3c3c2-c2ccc(Cl)cc2C3=O)CC1 [SJ-12]: 92.76%
- O=C1c2cc(Cl)ccc2-c2c(N3CCN(C(=O)N4CCCCC4)CC3)nc3ccccc3c21 [SJ-23]: 92.51%
- COc1nc2ccccc2c2c1-c1ccc(Cl)cc1C2=O [SJ-27]: 98.89%

Entry under review: O=C1c2cc(Cl)ccc2-c2c(SCCO)nc3ccccc3c21 [SJ-25] . Reported growth percentage?
86.99%

Follow-up entry: O=C1c2cc(Cl)ccc2-c2c(N3CCNCC3)nc3ccccc3c21 [SJ-10]
-73.67%

Follow-up entry: O=C1c2cc(Cl)ccc2-c2c(O)nc3ccccc3c21 [SJ-26]
95.26%

Follow-up entry: O=C1c2cc(Cl)ccc2-c2c(N3CCSCC3)nc3ccccc3c21 [SJ-9]
91.88%

Follow-up entry: CCN(CC)CCNc1nc2ccccc2c2c1-c1ccc(Cl)cc1C2=O [SJ-3]
43.72%

Follow-up entry: O=C1c2cc(Cl)ccc2-c2c(N3CCN(C4CCCC4)CC3)nc3ccccc3c21 [SJ-14]
93.06%

Follow-up entry: CN(C)c1nc2ccccc2c2c1-c1ccc(Cl)cc1C2=O [SJ-2]
96.35%

Attribution: patent US20150197492A1
